- System: NCI/ADR-RES ovarian
- experimental-protocol: NCI-60 one-dose screen, 48 h (100 = growth as untreated, 0 = no growth, -100 = all killed)
- measurement-context: 10 µM unless noted
The panel holds about 83,000 compounds, 20% with a hit somewhere; the sample as a whole holds those more often.
Some compounds, each annotated with its measured growth.
Numbers only here, please. The scale is %.

compound	tested-on	quantity-name	endpoint-result
Clc1ccc2c(c1)N(C1CCCN(Cc3ccccc3)C1)c1ccccc1S2 (centres undefined)	NCI/ADR-RES ovarian	growth	24.8
CN1C2C=CC(=O)C1C1C(=O)N(c3ccccc3)C(=O)C12 (centres undefined)	NCI/ADR-RES ovarian	growth	92.6
C/C(CC(C)C)=N/NC(N)=S	NCI/ADR-RES ovarian	growth	46.7
COc1ccc(COC=O)cc1	NCI/ADR-RES ovarian	growth	102
O=COCCCc1ccccc1	NCI/ADR-RES ovarian	growth	108

Lookup: Indicate its recorded growth; the compound in question is Cn1c(N)c(N=O)c(=O)n(C)c1=O
Found: 97.6

Lookup: Tell us which growth value is on record for CSc1nc(N)c(N)c(N)n1
Found: 110

Lookup: Report growth, nothing else, for this compound: Cc1c(Cl)cc(Cl)c(N)c1Cl
Found: 105

====

- Test system: NCI-H23 lung
- experimental-protocol: NCI-60 one-dose screen, 48 h (100 = growth as untreated, 0 = no growth, -100 = all killed)
- measurement-context: 10 µM unless noted
The panel holds about 83,000 compounds, 20% with a hit somewhere; the sample as a whole holds those more often.
growth by entry:
Quick note: give the figure in %, leave out the unit.

molecule	quantity-unit	endpoint-result
C=CCN1C(=O)c2ccccc2C1=O	%	103
O=[N+]([O-])c1ccc(N/N=C/C2CCCCCC2)c([N+](=O)[O-])c1	%	99.9

API: the following record is the query input.
Lookup: Give the reported growth for this molecule. CCN(C)c1ccccc1
Found: 102

====

- System: MOLT-4 leukemia
- experimental-protocol: NCI-60 one-dose screen, 48 h (100 = growth as untreated, 0 = no growth, -100 = all killed)
- measurement-context: 10 µM unless noted
About 83,000 compounds went through this panel and 20% of them were active in at least one assay; those are over-represented in the sample as a whole. The source made the active and inactive calls. Rule for the calls: active = growth percent below 10; inactive = the rest.
Recorded growth by entry

These solved cases illustrate the format of a correct answer.
compound	growth
COc1ccc(CCN=Cc2ccc(Cl)cc2)cc1OC	99.9% (inactive)
Clc1ccc2c(c1)N(C1CCCN(Cc3ccccc3)C1)c1ccccc1S2 (centres undefined)	70.3% (inactive)
N#Cc1c(N)nc2c(c(-c3ccc(Cl)cc3)nn2-c2ccccc2)c1C#N	114% [100 µM] (inactive)

Consider the record given below.
Lookup: Provide one value: measured growth of Oc1ccc(O)c(-c2ccccc2)c1
Found: 20.7% (inactive)

====

List of growth values.
- System: SW-620 colon
- experimental-protocol: NCI-60 one-dose screen, 48 h (100 = growth as untreated, 0 = no growth, -100 = all killed)
- measurement-context: 10 µM unless noted
This is part of a sample that, as a whole, favours compounds with a hit. Of some 83,000 tested, about 20% had one in any assay.
Please reply with the bare figure in % and do not write the unit itself.

Example compounds with recorded growth:
compound	growth, %
COc1cc2c(cc1O)C(=O)CCCC2	92.9
OCCSc1ccc(Cl)cc1	104
CN(C)CC(CN(C)C)C(O)c1ccccc1 (stereo unspecified)	111
COc1ccc(/C=N/Nc2nc3ccccc3s2)cc1	94.8
NC(=O)Cc1nc(O)cc(=O)[nH]1	104

Lookup: Could you please provide reported growth for NNc1ncnc2cccc(Cl)c12 ? Thanks!
Found: 104

Lookup: Give recorded growth. CCCCCCCCCCCCCCCCC(=O)O
Found: 105

Lookup: Return growth for the following compound: COC(=O)c1nc(N)nc(C(=O)OC)c1C(=O)c1ccc(F)cc1
Found: 110

Lookup: Find the measured growth of COc1ccc2nccc(Cl)c2c1 and report it.
Found: 101

Lookup: For the compound O=C1c2ccccc2C(c2ccccc2)C1c1ccccc1 (stereo unspecified) , report growth.
Found: 90.1

Lookup: Give me measured growth, please, for this compound: C/C(=C\c1ccccc1)C(O)C(=O)c1nc2ccc([N+](=O)[O-])cc2[nH]c1=O (stereo unspecified)
Found: 104
